# Tested Target: JAK2 (Homo sapiens (Human), UniProt O60674)
# Sequence (O60674 whole entry): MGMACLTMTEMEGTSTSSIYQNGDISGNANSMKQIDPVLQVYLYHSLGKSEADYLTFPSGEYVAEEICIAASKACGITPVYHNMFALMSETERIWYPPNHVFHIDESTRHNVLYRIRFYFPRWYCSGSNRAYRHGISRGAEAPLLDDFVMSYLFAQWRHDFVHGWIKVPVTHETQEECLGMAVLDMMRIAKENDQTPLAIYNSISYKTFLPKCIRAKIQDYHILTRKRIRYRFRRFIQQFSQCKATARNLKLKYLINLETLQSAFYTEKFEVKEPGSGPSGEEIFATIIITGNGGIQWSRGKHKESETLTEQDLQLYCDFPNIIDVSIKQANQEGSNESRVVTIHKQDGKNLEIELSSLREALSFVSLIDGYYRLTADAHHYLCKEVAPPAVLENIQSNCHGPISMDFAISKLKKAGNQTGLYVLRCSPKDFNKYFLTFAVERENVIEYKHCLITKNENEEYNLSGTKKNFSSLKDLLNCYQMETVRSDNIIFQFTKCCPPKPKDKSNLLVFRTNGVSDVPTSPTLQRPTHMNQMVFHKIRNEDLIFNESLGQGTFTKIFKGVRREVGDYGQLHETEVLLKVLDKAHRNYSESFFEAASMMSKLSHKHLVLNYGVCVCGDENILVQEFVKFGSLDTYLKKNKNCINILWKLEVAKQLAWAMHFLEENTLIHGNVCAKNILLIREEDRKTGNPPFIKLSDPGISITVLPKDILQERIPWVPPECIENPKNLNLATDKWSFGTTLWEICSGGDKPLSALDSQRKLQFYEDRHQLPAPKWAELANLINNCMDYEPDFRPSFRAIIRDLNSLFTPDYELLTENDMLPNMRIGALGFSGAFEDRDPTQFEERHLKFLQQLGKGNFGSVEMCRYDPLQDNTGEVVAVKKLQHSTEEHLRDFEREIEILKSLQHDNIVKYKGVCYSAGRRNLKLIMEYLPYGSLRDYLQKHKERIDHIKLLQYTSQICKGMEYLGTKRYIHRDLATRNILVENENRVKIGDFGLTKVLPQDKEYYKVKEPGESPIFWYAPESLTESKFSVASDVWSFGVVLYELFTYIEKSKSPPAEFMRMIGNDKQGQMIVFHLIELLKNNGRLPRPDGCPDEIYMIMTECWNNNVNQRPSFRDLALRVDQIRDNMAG
# Test: HTRF kinase assay, JAK2
# Format: biochemical
# Stated Conditions: Table 6
Catalogue of IC50 readings, one per entry.
Assay Metric: IC50 (nM)

>>> print(df.to_string())
                                    compound                             tested_target     val
 0  CN1CCN(c2ccc(Nc3ncc4ccn(-c5cccc(N(C)S(=O)(=O)C(C)(C)C)c5)c4n3)cc2)CC1  JAK2 (Homo sapiens (Human), UniProt O60674)       9
 1  CC(C)(C)S(=O)(=O)Nc1cccc(Nc2nc(NC3CCN(C(N)=O)CC3)nc3sccc23)c1  JAK2 (Homo sapiens (Human), UniProt O60674)   10000
 2  CC(=O)N1CCN(c2ccc(Nc3ncc4ccn(-c5cccc(NS(=O)(=O)C(C)(C)C)c5)c4n3)cc2)CC1  JAK2 (Homo sapiens (Human), UniProt O60674)      45
 3  CC(C)(C)S(=O)(=O)Nc1cccc(-n2ccc3cnc(Nc4ccc(N5CCNCC5)c(F)c4)nc32)c1 [drawing 432]  JAK2 (Homo sapiens (Human), UniProt O60674)       8
 4  CN1CCN(c2ccc(Nc3ncc4ccn(-c5cccc(NS(=O)(=O)C(C)(C)C)c5)c4n3)cc2Cl)CC1  JAK2 (Homo sapiens (Human), UniProt O60674)       8
 5  CN1CCN(c2ccc(Nc3ncc4ccn(-c5cccc(NS(=O)(=O)C(C)(C)C)c5)c4n3)cc2C#N)CC1  JAK2 (Homo sapiens (Human), UniProt O60674)    18.9
 6  CN1CCN2c3ccc(Nc4ncc5ccn(-c6cccc(NS(=O)(=O)C(C)(C)C)c6)c5n4)cc3CC2C1 (stereo not shown)  JAK2 (Homo sapiens (Human), UniProt O60674)      14
 7  Cc1cnc(Nc2ccc(N3CCN(C)CC3)cc2)nc1Nc1cccc(NS(=O)(=O)C(C)(C)C)c1 [drawing 339]  JAK2 (Homo sapiens (Human), UniProt O60674)      43
 8  O=S(=O)(Nc1cccc(-n2ccc3cnc(Nc4ccc(N5CCNCC5)cc4)nc32)c1)C1CC1 [drawing 320]  JAK2 (Homo sapiens (Human), UniProt O60674)       6
 9  CN1CCN(c2ccc(Nc3ncc4ccn(-c5ccc(NS(=O)(=O)C(C)(C)C)cc5)c4n3)cc2)CC1 [drawing 362]  JAK2 (Homo sapiens (Human), UniProt O60674)     0.7
10  CNc1nc(NC2CCNCC2)nc2c1ccn2-c1cccc(NS(=O)(=O)C(C)(C)C)c1  JAK2 (Homo sapiens (Human), UniProt O60674)   10000
11  CN1CCN2c3c(F)cc(Nc4ncc5ccn(-c6ccc(F)c(NS(=O)(=O)C(C)(C)C)c6)c5n4)cc3CC2C1 (stereo not shown)  JAK2 (Homo sapiens (Human), UniProt O60674)      56
12  CC(C)(C)S(=O)(=O)Nc1cc(-n2ccc3cnc(Nc4ccc(N5CCNCC5)c(F)c4)nc32)ccc1F [drawing 430]  JAK2 (Homo sapiens (Human), UniProt O60674)      76
13  CN1CCN(c2ccc(Nc3nc(Nc4cccc(NS(=O)(=O)C(C)(C)C)c4)c4ncsc4n3)cc2)CC1  JAK2 (Homo sapiens (Human), UniProt O60674)   10000
14  CC1(C)CNCCC1Nc1cc(Nc2cccc(NS(=O)(=O)C(C)(C)C)c2)c2ccsc2c1 (stereo not shown)  JAK2 (Homo sapiens (Human), UniProt O60674)   10000
15  CN1CCN(c2ccc(Nc3ncc4scc(-c5ccc(F)c(NS(=O)(=O)C(C)(C)C)c5)c4n3)cc2F)CC1  JAK2 (Homo sapiens (Human), UniProt O60674)      36
16  CN1CCC(NC(=O)c2ccc(Nc3ncc4ccn(-c5ccc(F)c(NS(=O)(=O)C(C)(C)C)c5)c4n3)cc2F)CC1 [drawing 335]  JAK2 (Homo sapiens (Human), UniProt O60674)  360000
17  CNCCOc1ccc(Nc2ncc3ccn(-c4cccc(NS(=O)(=O)C(C)(C)C)c4)c3n2)cc1F [drawing 460]  JAK2 (Homo sapiens (Human), UniProt O60674)      50
18  CC(C)(C)S(=O)(=O)Nc1cccc(-n2ccc3cnc(Nc4ccc(C(=O)N5CCNCC5)c(F)c4)nc32)c1 [drawing 462]  JAK2 (Homo sapiens (Human), UniProt O60674)      52
19  CC(C)(C)S(=O)(=O)Nc1cccc(-c2csc3cnc(Nc4ccc5c(c4)CCN4CCNCC54)nc23)c1 (stereo not shown)  JAK2 (Homo sapiens (Human), UniProt O60674)       2
20  CNC1CCN(c2ccc(Nc3ncc4scc(-c5ccc(F)c(NS(=O)(=O)C(C)(C)C)c5)c4n3)cc2F)CC1 [drawing 458]  JAK2 (Homo sapiens (Human), UniProt O60674)      10
21  CN1CCN(c2ccc(Nc3ncc4ccn(-c5cccc(NS(=O)(=O)C6(C)CC6)c5)c4n3)cc2)CC1  JAK2 (Homo sapiens (Human), UniProt O60674)      12
22  CNC1CCN(c2ccc(Nc3ncc4scc(-c5cccc(NS(=O)(=O)C(C)(C)C)c5)c4n3)cc2F)CC1  JAK2 (Homo sapiens (Human), UniProt O60674)       2
23  O=C(NC1CCNCC1)c1ccc(Nc2ncc3ccn(-c4cccc(NS(=O)(=O)C5CC5)c4)c3n2)cc1F  JAK2 (Homo sapiens (Human), UniProt O60674)      69
24  Cc1cnc(Nc2ccc(C(=O)NC3CCN(C)CC3)c(F)c2)nc1Nc1ccc2c(c1)N(S(=O)(=O)C(C)(C)C)CC2  JAK2 (Homo sapiens (Human), UniProt O60674)      24
25  CN(C)C1CCN(c2ccc(Nc3ncc4ccn(-c5ccc(F)c(NS(=O)(=O)C6CC6)c5)c4n3)cc2)CC1  JAK2 (Homo sapiens (Human), UniProt O60674)      10
26  CN(C)C1CCN(c2ccc(Nc3ncc4ccn(-c5ccc(F)c(NS(=O)(=O)C(C)(C)C)c5)c4n3)cc2F)CC1 [drawing 366]  JAK2 (Homo sapiens (Human), UniProt O60674)      27
27  CN(C)C1CCN(c2ccc(Nc3ncc4ccn(-c5cccc(NS(=O)(=O)C(C)(C)C)c5)c4n3)cc2F)CC1 [drawing 371]  JAK2 (Homo sapiens (Human), UniProt O60674)       3
28  CN1CCC(NC(=O)c2ccc(Nc3ncc4ccn(-c5ccc(F)c(NS(=O)(=O)C(C)(C)C)c5)c4n3)cc2)CC1  JAK2 (Homo sapiens (Human), UniProt O60674)     177
29  CCC1(S(=O)(=O)Nc2cccc(-n3ccc4cnc(Nc5ccc(N6CCC(N(C)C)CC6)c(F)c5)nc43)c2)CC1  JAK2 (Homo sapiens (Human), UniProt O60674)       5
30  CC(C)(C)S(=O)(=O)Nc1cccc(-n2ccc3cnc(Nc4ccc(C(=O)NC5CCNCC5)cc4)nc32)c1  JAK2 (Homo sapiens (Human), UniProt O60674)      24

Each recorded value in this set is attributed to patent US11279703B2.
